molecular target: DNMT3A catalytic domain (mouse); assay: relative CpG methylation activity (normalised to average over all NNNCGNNN flanks) (relative (1 = mean)); higher = more methylation of the central CpG; conditions: system: in vitro, murine catalytic domain; CpG state: hemimethylated substrate pool; residues: 608-908
In all, about 4,100 sequences were measured (“relative CpG methylation activity (normalised to average over all NNNCGNNN flanks)”: median about 0.87, highest 2% from about 2.4 on). The full list was thinned out, with the highest values kept by preference.
Would you kindly list relative CpG methylation activity for each of these sequences?
Numbers only.

> print(dat)
   item.sequence                     assay.system  reported
1       TTGCGCCC  DNMT3A catalytic domain (mouse)      2.61
2       GCCCGGCG  DNMT3A catalytic domain (mouse)      0.38
3       GAGCGCTT  DNMT3A catalytic domain (mouse)      2.07

Provide the reported relative CpG methylation activity of each entry below, same order.
1. ACCCGCCT
2. GGTCGTCT
3. ATCCGCCA
4. ACACGCCT
5. TGTCGAAC
6. TGCCGCGC
7. AAACGTAA
8. CATCGGGG

OUT:
1. 2.44
2. 0.726
3. 2.4
4. 2.44
5. 0.773
6. 0.766
7. 0.891
8. 0.133

Dear reader, for each entry below, please note its relative CpG methylation activity.
1. CTGCGCCC
2. AACCGTCG
3. CATCGGGA
4. TATCGAGC

OUT:
1: 2.19; 2: 1.34; 3: 0.259; 4: 0.705

Items follow; give relative CpG methylation activity for each.
1. ACACGCCA
2. ACTCGGAT
3. TTGCGCCT
4. GGCCGTGC
5. TTCCGCCG
6. ACCCGGTG
7. TATCGACT
8. GCTCGGAA

OUT:
1. 2.02
2. 0.799
3. 2.1
4. 0.353
5. 2.55
6. 0.688
7. 0.753
8. 0.694

Give relative CpG methylation activity for each listed item.
1. ATGCGCCC
2. GTCCGCCT
3. CTGCGCCG
4. GCACGCCC
5. GCACGAGG
6. TTGCGCCA
7. CCACGACG
8. ATACGCTC

OUT:
[2.44, 2.6, 1.93, 2.31, 0.755, 1.75, 1.18, 2.73]

# return relative CpG methylation activity for each item in the list
1. AGACGATG
2. ACACGCCC
3. TTACGCTG

OUT:
0.457
2.4
1.74

For each entry beneath this line, provide reported relative CpG methylation activity.
1. AGCCGCCA
2. GTACGCTC
3. GTGCGCCC
4. GGACGGGT
5. TTCCGCCA

OUT:
[1.02, 2.72, 2.22, 0.4, 2.2]

Report relative CpG methylation activity for every entry below.
1. AGGCGCCT
2. AGCCGGGA
3. ACACGCCG
4. GTACGCAC
5. GCGCGGGG
6. TTACGCTC

OUT:
[1.88, 0.357, 1.92, 1.87, 0.217, 2.74]

IN: I am curious: what relative CpG methylation activity value has been reported for `TTCCGCGT` ?
OUT: 1.64

====

molecular target: DNMT3A catalytic domain (mouse); assay: relative CpG methylation activity (normalised to average over all NNNCGNNN flanks) (relative (1 = mean)); higher = more methylation of the central CpG; details: system: in vitro, murine catalytic domain; CpG state: hemimethylated substrate pool; residues: 608-908
Over roughly 4,100 sequences, “relative CpG methylation activity (normalised to average over all NNNCGNNN flanks)” has its median near 0.87; the highest 2% begin near 2.4. For the sample, the highest values were picked, then their nearest neighbours and some sequences at random.
measured-attribute: relative CpG methylation activity
Give bare numbers.

> print(dat)
   item.sequence                     assay.system  reported
1       GTCCGCTT  DNMT3A catalytic domain (mouse)      2.54
2       GCCCGTTT  DNMT3A catalytic domain (mouse)     0.909

Consider the following items and state reported relative CpG methylation activity for each.
1. TAACGCTT
2. GTCCGCTG
3. CTCCGCTT

OUT:
[1.53, 1.42, 2.3]

Please supply relative CpG methylation activity for each of the following items, keeping them in order.
1. ATCCGCTG
2. ATACGCTT
3. ATACGCTG
4. GACCGCTC

OUT:
[1.62, 2.67, 2.12, 1.78]

State the recorded relative CpG methylation activity for every item in the following list.
1. ATCCGCTC
2. AGCCGTGA
3. GTACGCTA
4. TGACGCTT
5. TTGCGATA
6. GGCCGCTT
7. GTCCGCTA
8. TTACGCTT

OUT:
1: 2.37; 2: 0.258; 3: 1.98; 4: 1.05; 5: 1.13; 6: 1.75; 7: 1.9; 8: 2.62

Record relative CpG methylation activity for all entries; do not skip any.
1. ATACGCTA
2. TTCCGCTT
3. ATACGGTC
4. ATCCGCTA
5. ATCCGCTT

OUT:
[2.15, 2.48, 2.39, 1.78, 2.13]

Provenance of the data: the supplement of paper PMC7335073
